B1: ZNF263 (parent)
chain: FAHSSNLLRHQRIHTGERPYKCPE

Variants of: B1
protocol_details: protein stability index of a GFP-peptide fusion (GPS, HEK-293T) (PSI 1-6); higher = more stable;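 also: lentivirally expressed fusions sorted by FACS into six bins by GFP to DsRed ratio, PSI derived from sequencing read proportions per bin multiplied by bin number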
conditions: c terminus: a fixed tail appended
outcome_measure: protein stability index
API doc: respond with a numeric literal and nothing else, no unit.

# protein stability index (variant: N6T ) is 2.3

# protein stability index (variant: F1L ) is 2.67

# protein stability index (variant: S5T ) is 2.7

# protein stability index (variant: G16F ) is 1.37

# protein stability index (variant: K21S ) is 2.29

# protein stability index (variant: I13Q ) is 2.83

# protein stability index (variant: S5L ) is 1.96

# protein stability index (variant: G16K ) is 2.23

# protein stability index (variant: Y20E ) is 3.68

# protein stability index (variant: L8V ) is 2.55

# protein stability index (variant: P19W ) is 1.83

# protein stability index (variant: R18N ) is 2.45

# protein stability index (variant: P23A ) is 2.54

# protein stability index (variant: A2S ) is 3.19

# protein stability index (variant: H10P ) is 2.82

# protein stability index (variant: P23I ) is 2.58

# protein stability index (variant: L8K ) is 2.46

# protein stability index (variant: Y20Q ) is 3.48

# protein stability index (variant: K21T ) is 2.83

# protein stability index (variant: S4I ) is 2.09

# protein stability index (variant: G16Y ) is 1.93

# protein stability index (variant: C22R ) is 2.29

# protein stability index (variant: Y20R ) is 2.91

# protein stability index (variant: T15Y ) is 2.23

# protein stability index (variant: Q11R ) is 2.2

# protein stability index (variant: P23H ) is 2.36

# protein stability index (variant: C22L ) is 2.25

# protein stability index (variant: N6E ) is 2.62

# protein stability index (variant: L8S ) is 3.14

# protein stability index (variant: P23V ) is 1.87

# protein stability index (variant: S4A ) is 2.15

# protein stability index (variant: H3D ) is 1.94

# protein stability index (variant: R18H ) is 2.52

# protein stability index (variant: P19V ) is 2.67

# protein stability index (variant: T15I ) is 2.29

# protein stability index (variant: S5N ) is 2.3

# protein stability index (variant: P23T ) is 2.29
